Recorded measurements of Papp at 6 h, one per entry
# Assay Name: in vitro
# Measurement Setup: PAMPA, pH 7.4
# Description: Permeability of the compound at pH 7.4 measured after 6 hrs by PAMPA method
Readout Name: Papp at 6 h (×10⁻⁶ cm/s)

- COc1ccc2cc3[n+](cc2c1OCc1ccc(C(F)(F)F)cc1)CCc1cc2c(cc1-3)OCO2.[Br-]: 0.8
- COc1ccc2cc3[n+](cc2c1OCc1ccccc1)CCc1cc2c(cc1-3)OCO2.[Br-]: 0.4
- COc1ccc2cc3[n+](cc2c1OCc1ccc([N+](=O)[O-])cc1)CCc1cc2c(cc1-3)OCO2.[Br-]: 1.4

###

Measurement record for Prolyl endopeptidase (Homo sapiens, UniProt P48147); quantity recorded: pIC50.
pIC50: −log10 of the molar value.
Readout Name: pIC50

- COc1ccc2cc3[n+](cc2c1OCc1ccc([N+](=O)[O-])cc1)CCc1cc2c(cc1-3)OCO2.[Br-]: 4.67
- COc1ccc2cc3[n+](cc2c1OCc1ccc(SC)cc1)CCc1cc2c(cc1-3)OCO2: 4.47
- COc1ccc2cc3[n+](cc2c1OCc1ccc(C(F)(F)F)cc1)CCc1cc2c(cc1-3)OCO2.[Br-]: 4.56
- COc1ccc2cc3[n+](cc2c1OCc1ccc(Cl)c(Cl)c1)CCc1cc2c(cc1-3)OCO2: 4.28
- COc1ccc2cc3[n+](cc2c1OC(C)c1ccccc1)CCc1cc2c(cc1-3)OCO2.[Br-] (stereo not given): 4.53

###

# Target Entity: Acetylcholinesterase (Homo sapiens)
# Sequence (P22303 whole entry): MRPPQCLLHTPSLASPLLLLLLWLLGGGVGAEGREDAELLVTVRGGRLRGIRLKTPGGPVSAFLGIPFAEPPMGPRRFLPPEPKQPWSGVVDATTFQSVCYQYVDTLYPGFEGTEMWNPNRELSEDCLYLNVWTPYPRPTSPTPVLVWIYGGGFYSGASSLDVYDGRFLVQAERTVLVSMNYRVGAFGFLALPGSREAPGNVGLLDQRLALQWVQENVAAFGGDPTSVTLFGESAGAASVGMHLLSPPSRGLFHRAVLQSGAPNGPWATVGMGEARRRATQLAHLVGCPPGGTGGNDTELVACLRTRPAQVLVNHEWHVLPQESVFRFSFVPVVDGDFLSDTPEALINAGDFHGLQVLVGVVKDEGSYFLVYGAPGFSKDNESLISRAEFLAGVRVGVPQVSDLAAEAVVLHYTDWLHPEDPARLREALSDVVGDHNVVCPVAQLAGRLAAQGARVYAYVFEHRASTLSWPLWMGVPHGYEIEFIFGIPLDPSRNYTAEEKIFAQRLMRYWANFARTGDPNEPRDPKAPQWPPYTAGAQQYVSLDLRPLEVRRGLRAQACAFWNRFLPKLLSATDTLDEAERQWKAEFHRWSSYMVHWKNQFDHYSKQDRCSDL
# Assay Name: Inhibition of recombinant human acetylcholinesterase using acetylthiocholine iodide as substrate preincubated with enzyme for 5 mins followed by substrate addition and measured at 2 mins interval by Ellman's method
Please use the following IC50 ranges when assigning a class: low: < 2 µM; moderate: ≥ 2 µM and < 4 µM; high: ≥ 4 µM

- COC(=O)c1ccc(COc2c(OC)ccc3cc4[n+](cc23)CCc2cc3c(cc2-4)OCO3)cc1: moderate
- COc1ccc2cc3[n+](cc2c1OCc1ccc(C)cc1)CCc1cc2c(cc1-3)OCO2.[Br-]: high
- COc1ccc2cc3[n+](cc2c1OCc1ccc(Cl)c(Cl)c1)CCc1cc2c(cc1-3)OCO2: low
- COc1ccc2cc3[n+](cc2c1OCc1ccc(C#N)cc1)CCc1cc2c(cc1-3)OCO2: low
- COc1ccc2cc3[n+](cc2c1OCc1ccc(Br)cc1)CCc1cc2c(cc1-3)OCO2.[Br-]: moderate
- COc1ccc2cc3[n+](cc2c1OCc1cccc([N+](=O)[O-])c1)CCc1cc2c(cc1-3)OCO2.[Br-]: low
- COc1ccc2cc3[n+](cc2c1OCc1cccc(Cl)c1)CCc1cc2c(cc1-3)OCO2: low
- COc1ccc(COc2c(OC)ccc3cc4[n+](cc23)CCc2cc3c(cc2-4)OCO3)cc1.[Br-]: high
- COc1ccc2cc3[n+](cc2c1OCc1ccc2ccccc2c1)CCc1cc2c(cc1-3)OCO2.[Br-]: low
- COc1ccc2cc3[n+](cc2c1OCc1ccc(C(C)C)cc1)CCc1cc2c(cc1-3)OCO2: high
- COc1ccc2cc3[n+](cc2c1OCc1ccc(C(F)(F)F)cc1)CCc1cc2c(cc1-3)OCO2.[Br-]: low
- COc1ccc2cc3[n+](cc2c1OCc1cccc(C)c1)CCc1cc2c(cc1-3)OCO2: high
